test system: carrageenin-induced oedema; assay: carrageenin-induced oedema test upon rats, anti-inflammatory effect (Winter et al.); format: in vivo; details: Rattus norvegicus, phenylbutazone control, read-out: Carrageenin (A.D. 30, mg/kg)
Decide using ED30: a value greater than or equal to 50 mg/kg is 1.0, a smaller one is 0.0.

>  <compound>
COC(=O)C(C)c1ccc2oc(-c3cccs3)cc(=O)c2c1 (centres unmarked) [Example 29]

>  <labelValue>
0.0

$$$$
>  <compound>
CC(C(=O)O)c1ccc2oc(-c3ccccc3)cc(=O)c2c1 (centres unmarked) [Example 22, 2-(6'-Flavonyl)propionic acid]

>  <labelValue>
1.0

$$$$

In plain terms: is recorded ED30 at least 50 mg/kg for CCCOC(=O)C(C)c1ccc2oc(-c3ccccc3)cc(=O)c2c1 (centres unmarked) [Example 25] ?
1.0

In plain terms: is recorded ED30 at least 50 mg/kg for CC(C(=O)O)c1ccc2oc(-c3cccs3)cc(=O)c2c1 (centres unmarked) [Example 13] ?
0.0
